Tested on: M. fortuitum (n = 11) clinical isolates
experimental_protocol: MIC against rapid-growing NTM clinical isolates
Format: cell-based
measurement_parameters: M. fortuitum (n = 11)
quantity_name: MIC range

Known results for molecules:
CC12CC3CC(C)(C1)CC(C(=O)Nc1nc4ccc(OC(F)(F)F)cc4s1)(C3)C2 [CRS400226] : 0.12 to 0.5 µg/mL
CC1CC(C(=O)Nc2nc3c(F)cc(F)cc3s2)CC(C)(C)C1 (centres unmarked) [CRS400153] : 0.5–0.5 μg/mL
NCC[C@H](O)C(=O)N[C@@H]1C[C@H](N)[C@@H](O[C@H]2O[C@H](CN)[C@@H](O)[C@H](O)[C@H]2O)[C@H](O)[C@H]1O[C@H]1O[C@H](CO)[C@@H](O)[C@H](N)[C@H]1O [Amikacin, reference compound] : 0.5 to 4 µg/mL
CC12CCCC(C(=O)Nc3nc4ccc(OC(F)(F)F)cc4s3)(CCC1)C2 [CRS400359] : 0.06 to 1 µg/mL

Prompt: Under M. fortuitum (n = 11) clinical isolates: MIC range value of CC12CCCC(C(=O)Nc3nc4cc(Cl)cc(Cl)c4s3)(CCC1)C2 [CRS400393] ?
Completion: ≤ 0.03 to 0.5 µg/mL

---

Test system: M. abscessus 21
experimental_protocol: MIC in MHB versus 7H9+OADC
Type: cell-based
measurement_parameters: M. abscessus 21, 7H9 + OADC (5 mg/mL albumin)
quantity_name: MIC (µg/mL)
One number for each entry, in µg/mL.

# return MIC for each item in the list
1. CC12CCCC(C(=O)Nc3nc4ccc(OC(F)(F)F)cc4s3)(CCC1)C2 [CRS400359]
2. NCC[C@H](O)C(=O)N[C@@H]1C[C@H](N)[C@@H](O[C@H]2O[C@H](CN)[C@@H](O)[C@H](O)[C@H]2O)[C@H](O)[C@H]1O[C@H]1O[C@H](CO)[C@@H](O)[C@H](N)[C@H]1O [Amikacin, reference compound]

Completion:
1. 2
2. 4

Record MIC per entry; entries follow.
1. CC12CCCC(C(=O)Nc3nc4cc(Cl)cc(Cl)c4s3)(CCC1)C2 [CRS400393]
2. CC12CC3CC(C)(C1)CC(C(=O)Nc1nc4ccc(OC(F)(F)F)cc4s1)(C3)C2 [CRS400226]

Completion:
[1, 8]

---

System: M. abscessus (n = 20) clinical isolates
experimental_protocol: MIC against rapid-growing NTM clinical isolates
Assay type: cell-based
measurement_parameters: Mycobacteroides abscessus; M. abscessus (n = 20); read-out: MIC90
Record form. Attribute: MIC90. Fill in for each entry.

CC[C@H]1OC(=O)[C@H](C)[C@@H](O[C@H]2C[C@@](C)(OC)[C@@H](O)[C@H](C)O2)[C@H](C)[C@@H](O[C@@H]2O[C@H](C)C[C@H](N(C)C)[C@H]2O)[C@](C)(O)C[C@@H](C)CN(C)[C@H](C)[C@@H](O)[C@]1(C)O [Azithromycin, reference compound] : > 8 µg/mL
CC(=O)NC[C@H]1CN(c2ccc(N3CCOCC3)c(F)c2)C(=O)O1 [Linezolid, reference compound] : > 8 µg/mL

Dear colleague, could you send me MIC90 for each of the items below? Thanks.
1. NCC[C@H](O)C(=O)N[C@@H]1C[C@H](N)[C@@H](O[C@H]2O[C@H](CN)[C@@H](O)[C@H](O)[C@H]2O)[C@H](O)[C@H]1O[C@H]1O[C@H](CO)[C@@H](O)[C@H](N)[C@H]1O [Amikacin, reference compound]
2. CC12CC3CC(C)(C1)CC(C(=O)Nc1nc4ccc(OC(F)(F)F)cc4s1)(C3)C2

Completion:
16 µg/mL
0.5 µg/mL
